Test system: HOP-62 NSCLC
method-summary: NCI-60 one-dose screen, 48 h
applied-conditions: 10 µM unless noted
The panel holds about 83,000 compounds, 20% with a hit somewhere; the sample as a whole holds those more often. Activity calls are given as the source filed them. Rule for the calls: active = growth percent below 10; inactive = the rest.
Hi! Could you answer with just one of these? active, inactive

Examples with answers:
molecule	target-of-assay	class-assignment
CCC(C)Nc1ccc(NC(C)CC)cc1 (stereo not given)	HOP-62 NSCLC	inactive
O=C(O)CCCn1c(SCc2c(Cl)cccc2Cl)nc2ccsc2c1=O	HOP-62 NSCLC	inactive
COc1cc2nc(Nc3cccc(F)c3)nc(Nc3cc(C)[nH]n3)c2cc1OC	HOP-62 NSCLC	active

Q) // return assay outcome for CN1CCN(Cc2ccc(NC(=O)c3cncc(C#Cc4cncc5ncccc45)c3)cc2C(F)(F)F)CC1
A) inactive

Q) // return assay outcome for CC(CN)[C@@H]1CC[C@]2(CO)CC[C@]3(C)[C@H](CC[C@@H]4[C@@]5(C)CCC(N)C(C)(C)[C@@H]5CC[C@]43C)[C@@H]12 (stereo not given in full)
A) active

Q) // return assay outcome for O=C(Nc1cccnc1Nc1ccc(Cl)cc1)c1cn(Cc2ccc(F)cc2)nn1
A) inactive

Q) // return assay outcome for CC1CN=C(c2cccc(-c3ccc(-c4ccccc4)o3)c2)N1 (stereo not given)
A) inactive

Q) // return assay outcome for O=C1OCC2=C1C(c1cccc(F)c1)c1cc3c(cc1N2CCO)OCO3 (stereo not given)
A) inactive

Q) // return assay outcome for COc1ccc(-c2cc(-c3cc(OC)c(OC)c(OC)c3)c(C#N)c(=O)n2CCCCCC(=O)NO)cc1
A) inactive

Q) // return assay outcome for CCN(CC)CCOc1ccc(Nc2ncc3cc(-c4ccc(O)cc4)c(=O)n(C)c3n2)cc1
A) inactive
